Tested on: OVCAR-8 ovarian
Test: NCI-60 one-dose screen, 48 h
Details: 10 µM
Protocol: Growth inhibition of the OVCAR-8 human tumor cell line is measured as a screen for anti-cancer activity. Cells are grown in 96 well plates and exposed to the test compound for 48 hours. Compounds are tested at a single concentration, which is 10^-5 M for most compounds. The reported endpoint is percent growth (GI% or GIPRCNT), where numbers from 0 - 100% represent growth inhibition, and numbers from -100% - 0 represent cell death. For example, a value of 40 represents 60% growth inhibition. […]
About 83,000 compounds went through this panel and 20% of them were active in at least one assay; those are over-represented in the sample as a whole. The source made the active and inactive calls. The calls were made as follows: active = growth percent below 10; inactive = the rest.
Classes used: label 1 = active, label 0 = inactive

• CN(C)CCCN(Cc1ccccc1O)C(=S)Nc1ccc(Cl)cc1 = label 0
• O=[N+]([O-])c1ccc(-c2nc(-c3ccccc3)c(-c3ccccc3)n2-c2ccccc2)cc1 = label 0
• COC(=O)c1cnc2c(c1)Oc1ccccc1-c1ccnn1-2 = label 0
• COc1ccc(/C(=C/c2cc(OC)c(OC)cc2[N+](=O)[O-])C(=O)O)cc1 = label 0
• O=c1c2cccc3c(Nc4ccc(Br)cn4)ccc(c32)c2nc3ccccc3n12 = label 0
• Cc1cc(Cl)ccc1Nc1nc(C(F)(F)F)ccc1C(=O)N/N=C/c1ccccc1Cl = label 0
• CCN(CC)CC(O)CNc1ccnc2cc(Cl)c(Cl)cc12 (configuration not stated) = label 0
• O=C(O)CCCN1C(=O)NC2(C1=O)c1ccccc1-c1ccccc12 = label 0
• O=C(/C=C/c1ccc(Cl)cc1)c1ccc(Br)cc1 = label 0
• CN1/C(=C\C(I)C(I)C2=[N+](C)c3ccccc3C2(C)C)C(C)(C)c2ccccc21 (configuration not stated) = label 1
• Cc1ccc2c3c(cccc13)-c1ccccc1C2=O = label 0
• COc1cccc2c1C(=O)c1c(O)c3c(c(O)c1C2=O)C[C@@](O)(C(=O)COC(=O)c1cccnc1)C[C@@H]3OC1CC(N)C(O)C(C)O1 (some centres not stated) = label 1
• CCCCOCCOCCOCc1cc2c(cc1Br)OCO2 = label 0
• CC1(C)Cc2c(cn(Cc3ccccc3)c2-c2ccccc2)-c2oncc21 = label 0
• C=CCn1ccc(=O)nc1SC = label 0
• N#Cc1ccc(-n2cnc(NC(=O)[C@H]3CCN(C#N)C3)c2)cc1 = label 0
• CC(C)C[C@H](NC(=O)Cn1ccc2ccccc2c1=O)B(O)O = label 0
• COc1cc(Nc2ccnc(N3CCN(c4ccnc5cc(Cl)ccc45)CC3)n2)cc(OC)c1 = label 1
• COc1ccc(CCc2nc3cc(-c4c(C)noc4C)ccc3n2CCN2CCOCC2)cc1 = label 0
• COc1cc(-c2c(C#N)c(N)n3c(nc4ccccc43)c2C#N)cc(Br)c1OC = label 0
• CCCCCN(CCCCC)C(C)C(O)c1ccc2cc(Cl)c3ccccc3c2c1 (configuration not stated) = label 0
• CC(C)=C1CCC(C)C/C1=N\N=C(N)N (configuration not stated) = label 0
